Target: PAT1 (murine slc26a6) (Mus musculus, UniProt Q8CIW6)
Construct: host or cells: Fischer rat thyroid (FRT) cells, lentiviral transduction (pLVX-IRES-mCherry-slc26a6), clonal line FRT-YFP-slc26a6
Sequence (Q8CIW6 24-758 limits assumed): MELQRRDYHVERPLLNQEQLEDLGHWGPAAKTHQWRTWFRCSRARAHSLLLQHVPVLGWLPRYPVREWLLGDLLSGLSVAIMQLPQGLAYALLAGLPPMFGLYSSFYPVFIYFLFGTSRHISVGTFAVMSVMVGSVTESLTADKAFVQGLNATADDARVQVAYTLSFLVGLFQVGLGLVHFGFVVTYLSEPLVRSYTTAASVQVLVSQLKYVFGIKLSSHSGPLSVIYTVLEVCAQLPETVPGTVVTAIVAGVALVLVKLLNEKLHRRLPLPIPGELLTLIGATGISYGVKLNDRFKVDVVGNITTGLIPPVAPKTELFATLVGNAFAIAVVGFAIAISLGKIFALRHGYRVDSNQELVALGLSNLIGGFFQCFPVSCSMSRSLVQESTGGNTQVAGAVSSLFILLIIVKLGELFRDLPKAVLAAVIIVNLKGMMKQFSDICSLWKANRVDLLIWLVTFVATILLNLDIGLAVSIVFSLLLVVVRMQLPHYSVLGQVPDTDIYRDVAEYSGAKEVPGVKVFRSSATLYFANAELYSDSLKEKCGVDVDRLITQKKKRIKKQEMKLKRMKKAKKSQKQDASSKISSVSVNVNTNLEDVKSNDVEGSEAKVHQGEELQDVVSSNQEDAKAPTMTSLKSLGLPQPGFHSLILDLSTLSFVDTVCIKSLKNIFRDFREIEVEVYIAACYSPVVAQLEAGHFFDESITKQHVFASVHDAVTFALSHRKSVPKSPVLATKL
Experiment: PAT1-mediated Cl-/HCO3- exchange, cytoplasmic pH in BCECF-loaded FRT cells
Format: cell-based
Conditions: read-out: IC50, inhibition of Cl-/HCO3- exchange
quantity-name: IC50 (nM)

>>> numeric_value("Cc1c(Br)c(C(F)(F)F)nn1CC(=O)N1CCc2nc3cc(-c4ccccc4)[nH]n3c(=O)c2C1")
290

----------
biological target: PAT1 (murine slc26a6) (Mus musculus, UniProt Q8CIW6); construct: host or cells: Fischer rat thyroid (FRT) cells, lentiviral transduction (pLVX-IRES-mCherry-slc26a6), clonal line FRT-YFP-slc26a6; experiment: PAT1-mediated Cl-/SCN- exchange, YFP fluorescence quenching in FRT cells; format: cell-based; settings: read-out: IC50, inhibition of PAT1-mediated Cl-/SCN- exchange
quantity-name: IC50

>>> result("Cc1c(Br)c(C(F)(F)F)nn1CC(=O)N1CCc2nc3cc(-c4ccccc4)[nH]n3c(=O)c2C1 [PAT1inh-B01]")
"260 nM"
